Each entry below carries its recorded GI50.
Tested on: HOP-92
ASSAY PROTOCOL: NCI tumour cell line growth inhibition, 48 h
Activity calls are given as the source filed them. Cut-off read from the data, not from the text of the source: active = GI50 up to about 1.1 µM and inactive = higher.

Reference set, count: 2
COMPOUND: O=C(CCCCCC(=O)N1CC(CCl)c2ccc([N+](=O)[O-])cc21)N1CC(CCl)c2ccc([N+](=O)[O-])cc21 (stereo not given)
GI50: > 100 µM (inactive)
//
COMPOUND: CC1(C)/C(=N\O)C2(C#N)CCC1C2 (stereo not given)
GI50: > 100 µM (inactive)

query: Any idea what GI50 was measured for O=C1/C(=C/c2ccc(Cl)cc2)N=C(c2ccccc2)N1c1ccc(S(=O)(=O)Nc2nccs2)cc1 ?
result: 28.9 µM (inactive)

query: Form field: reported GI50 of CCOc1ccc(Nc2nc(N)nc(N)c2N)cc1
result: 50.9 µM (inactive)

query: Field request: GI50 | item: CCN(CC)CCn1c2cc3c(cc2c(=O)c2cccnc21)OCCO3
result: > 10 µM (inactive)

###

Test system: A549
ASSAY PROTOCOL: NCI tumour cell line growth inhibition, 48 h
Calls of active or inactive are those of the source. Rule as the data show it: active = GI50 up to about 1.1 µM and inactive = higher.
Would you mind answering with one of these outcomes? YES = active, NO = inactive

MOLECULE: O=C(NC(Cc1ccc(I)cc1)C(=O)O)c1ccc(Br)cc1 (stereo not drawn)
LABEL CLASS: NO

query: Tell me the recorded outcome of this test for c1cc2[se][se]c3c4cccc5[se][se]c(c(c1)c23)c54 .
result: NO

query: Which outcome was assigned to COc1cc(C2Oc3cc(-c4oc5cc(O)cc(O)c5c(=O)c4O)ccc3OC2CO)ccc1O (stereo not drawn) [DEHYDROSILYLBIN] in this test?
result: NO

###

Tested on: MDA-MB-231
ASSAY PROTOCOL: NCI tumour cell line growth inhibition, 48 h
Calls of active or inactive are those of the source. Rule as the data show it: active = GI50 up to about 1.1 µM and inactive = higher.
REPORTED PROPERTY: GI50

MOLECULE: Cn1c2ccccc2n2c3ncccc3c(=O)cc12
GI50: 96.8 µM (inactive)
--
MOLECULE: O=C1C2=Cc3ccccc3CCN2c2ccccc21
GI50: > 41.9 µM (inactive)
--
MOLECULE: CC(=O)ON(OC(C)=O)c1ccc(C)cc1
GI50: > 100 µM (inactive)
--
MOLECULE: O=C1Nc2ccccc2/C1=N/Nc1ccc([N+](=O)[O-])cc1[N+](=O)[O-]
GI50: 13.2 µM (inactive)
--
MOLECULE: CN(C)C(=C1c2cc([N+](=O)[O-])ccc2-c2ccc([N+](=O)[O-])cc21)N(C)C
GI50: > 100 µM (inactive)
--
MOLECULE: O=C(CC(=O)Nc1ccccc1)NNC(Sc1ccccc1)c1cc(/N=N/c2ccc(Br)cc2)ccc1O (configuration not stated)
GI50: 2.24 µM (inactive)

Shift focus to the following entry.
query: Given the molecule COC(=O)/C=C/[C@H]1[C@H](C)N1S(=O)(=O)c1ccc(C)cc1 (some centres not stated) , what is its reported GI50?
result: > 100 µM (inactive)

###

Test system: SN12C
ASSAY PROTOCOL: NCI tumour cell line growth inhibition, 48 h
Active and inactive are the calls of the source. Cut-off read from the data, not from the text of the source: active = GI50 up to about 1.1 µM and inactive = higher.
Lab note: assign the record to one of active, inactive

Previously resolved entries follow.
COMPOUND: O=c1[nH]/c(=C/c2ccc(OCc3ccccc3)cn2)c(=O)[nH]/c1=C/c1ccc(F)cc1
LABEL CLASS: active
//
COMPOUND: O=[N+]([O-])c1ccc2[nH]c(=S)[nH]c(=S)c2c1
LABEL CLASS: inactive
//
COMPOUND: CC(C)=CCC(OC(=O)C=C(C)C)c1cc(O)c2c(c1O)C(=O)C=CC2=O (configuration not stated)
LABEL CLASS: active
//
COMPOUND: CCCCOC(=O)C1CC[C@H]2[C@@H]3CCc4cc(OC(=O)c5cccc6c(=O)c7ccccc7[nH]c56)ccc4[C@H]3CC[C@]12C (some centres not stated)
LABEL CLASS: inactive
//
COMPOUND: O=[N+]([O-])c1ccc(NN/N=N/c2ccc(-c3nc4ccccc4[nH]3)cc2)c([N+](=O)[O-])c1
LABEL CLASS: inactive
//
COMPOUND: CCn1ncc(N=O)c1N
LABEL CLASS: inactive

query: Hi, do you know how CC#CC1C2CCCC1(CSc1ccccc1)NC(=O)O2 (configuration not stated) came out in this test?
result: inactive

query: Outcome? Cc1cc(O)c2c(c1)C[C@@H](O)C1=C2C(=O)c2c(O)ccc(OC3CC(O)C(OC4CC(OC5CCC(OC6CC(O)C(OC7CC(OC8CCC(O)C(C)O8)C(O)C(C)O7)C(C)O6)C(C)O5)C(O)C(C)O4)C(C)O3)c2C1=O (some centres not stated)
result: active

query: Hi, do you know how Cc1csc(-n2nc(C)cc2C)n1 came out in this test?
result: inactive

query: Any idea what this test logged for O/N=C1/Nc2ccccc2C(=S)N2CSCC12 (configuration not stated) ?
result: inactive

query: Short answer needed: outcome of this test for COC(=O)c1cccc(OC)c1C#Cc1c(OC)cccc1OC ?
result: inactive

###

System: NCI-H23
ASSAY PROTOCOL: NCI tumour cell line growth inhibition, 48 h
Calls of active or inactive are those of the source. Rule as the data show it: active = GI50 up to about 1.1 µM and inactive = higher.
REPORTED PROPERTY: GI50

Solved cases (3 shown):
MOLECULE: Cc1cc2[nH]c3c(C#N)c(-c4ccccc4)c(CN4CCOCC4)c(=O)n3c2cc1C
TESTED ON: NCI-H23
TEST RESULT: > 100 µM (inactive)
//
MOLECULE: COC(=O)n1c(C)c(C=O)c2ccc(OC)cc21
TESTED ON: NCI-H23
TEST RESULT: 28.6 µM (inactive)
//
MOLECULE: CN(C)C(=C1c2cc([N+](=O)[O-])ccc2-c2ccc([N+](=O)[O-])cc21)N(C)C
TESTED ON: NCI-H23
TEST RESULT: > 100 µM (inactive)

query: Give NCI-H23 GI50 for O=C(CC1C(=O)Nc2ccccc2[S+]1[O-])Nc1ccc(Cl)cc1 (configuration not stated)
result: 35.2 µM (inactive)

query: Please provide the recorded GI50 for CCCCCCCCCCCCOC(=N)N1CCOCC1 , tested on NCI-H23.
result: 13.4 µM (inactive)

query: Form entry - test system: NCI-H23; read-out: GI50; molecule: O=C1CC(c2ccc([N+](=O)[O-])cc2)C2(C(=O)NC(=S)NC2=O)C(c2ccc([N+](=O)[O-])cc2)C1 (configuration not stated)
result: 22.1 µM (inactive)

query: API: value(readout= GI50, system= NCI-H23, query= CC#CC1C2CCCC1(CSc1ccccc1)NC(=O)O2 (configuration not stated) )
result: > 100 µM (inactive)

###

The entries below come with measured GI50 values attached.
Tested on: SK-MEL-2
ASSAY PROTOCOL: NCI tumour cell line growth inhibition, 48 h
Active and inactive are the calls of the source. Cut-off read from the data, not from the text of the source: active = GI50 up to about 1.1 µM and inactive = higher.

In the examples that follow, each entry is paired with its recorded GI50.
COMPOUND: O=C(O)[C@H]1NC[C@@H]2ON=C(Br)[C@@H]21
TESTED ON: SK-MEL-2
REPORTED PROPERTY: GI50
TEST RESULT: > 100 µM (inactive)
--
COMPOUND: COc1ccccc1NC(=O)C1=C(C)NC(C)=C(C(=O)Nc2ccccc2OC)C1/C=C/c1ccccc1
TESTED ON: SK-MEL-2
REPORTED PROPERTY: GI50
TEST RESULT: > 100 µM (inactive)
--
COMPOUND: Cc1cc(C)nc(NS(=O)(=O)c2ccc(NC(=O)c3cc([N+](=O)[O-])cc([N+](=O)[O-])c3)cc2)n1
TESTED ON: SK-MEL-2
REPORTED PROPERTY: GI50
TEST RESULT: > 100 µM (inactive)

query: Fill in the blank: the reported GI50 of O=c1c2ccccc2nc(-c2ccccc2)n1NC1OC(CO)C(O)C(O)C1O (stereo unspecified) is ____.
result: > 100 µM (inactive)

query: Query (compound): CCOC(=O)c1ccc(/N=C2\S/C(=C\C(=S)Nc3ccccc3)N(c3ccccc3)\C2=N/c2ccc(C(=O)OCC)cc2)cc1 ; field requested: GI50
result: > 100 µM (inactive)

query: If you can, please state the reported GI50 value of COc1cccc2c1C(=O)c1c(O)c3c(c(O)c1C2=O)C[C@@](O)(C(C)=O)C[C@@H]3OC1CC(O)C(O)C(C)O1 (stereo partly specified) .
result: 4.81 µM (inactive)

###

Test system: K562
ASSAY PROTOCOL: NCI tumour cell line growth inhibition, 48 h
Active and inactive are the calls of the source. Cut-off read from the data, not from the text of the source: active = GI50 up to about 1.1 µM and inactive = higher.
Please state which outcome applies, choosing from true for active, false for inactive

MOLECULE: N#Cc1ccccc1NC(=O)C(=O)C(C(=O)c1ccccc1F)C1OC(=O)c2ccccc21 (stereo not given)
LABEL CLASS: false

MOLECULE: CCOC(=O)c1cc2c(OCc3ccccc3)c(OC)cc3c2c(n1)N(c1ccc(OC)cc1)C(C)C3 (stereo not given)
LABEL CLASS: false

MOLECULE: O=C(O)[C@H]1NC[C@@H]2ON=C(Br)[C@@H]21
LABEL CLASS: false

MOLECULE: CCN(CC)C(=S)N/N=C(\C)c1ccccc1O
LABEL CLASS: true

Turning now to a further molecule:
query: Which outcome was assigned to CCOC(=O)C1=c2[nH]c3cccc4cccc(c43)n2C(=O)CC1c1ccccc1 (stereo not given) in this test?
result: false
